assay: Pharmacokinetic assays of compounds after oral gavage administration to rats; assay type: in vivo, male SD rats; details: male SD rats, oral gavage, 30.0 mg/kg, suspension in 0.5% CMC-Na, plasma
PROPERTY: Cmax (ng/mL)
Your answer is read as ng/mL, so omit the unit and give the number.

Please fill in: Cmax reported for `C=CC(=O)N1CCC[C@@H](n2nc(-c3ccc(Oc4ccccc4)cc3)c3c(NC(=O)OC(C)C)ncnc32)C1` = 257.2

Please fill in: Cmax reported for `C=CC(=O)N1CCC[C@@H](n2nc(-c3ccc(Oc4ccccc4)cc3)c3c(NC(=O)OCCCCCC)ncnc32)C1` = 143.9

Please fill in: Cmax reported for `C=CC(=O)N1CCC[C@@H](n2nc(-c3ccc(Oc4ccccc4)cc3)c3c(NC(=O)OCCCC)ncnc32)C1` = 304.4

Please fill in: Cmax reported for `C=CC(=O)N1CCC[C@@H](n2nc(-c3ccc(Oc4ccccc4)cc3)c3c(NC(=O)OCCC)ncnc32)C1` = 111.0

Please fill in: Cmax reported for `C=CC(=O)N1CCC[C@@H](n2nc(-c3ccc(Oc4ccccc4)cc3)c3c(NC(=O)OCC(C)C)ncnc32)C1` = 256.7
